%Inh by entry:
# System: PHKG2
# assay-context: concentration: 1 μM,replicates: in singlicate; n = 1;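 note: KINOMEscan kinase panel screen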
Give the quantity in %, number only.

The examples below pair each entry with its known result.
{"compound": "Nc1nccc(-c2ccc3c(N)n[nH]c3c2)n1 [GSK1034945]", "assayed-system": "PHKG2", "%Inh (%)": 13}
{"compound": "Cc1ccc(CC(=O)N2CCc3cc(-c4cn(C)c5ncnc(N)c45)ccc32)cc1 [GSK2634758]", "assayed-system": "PHKG2", "%Inh (%)": 0}
{"compound": "O=C(Nc1ccc(Oc2ccc3nc(NC(=O)C4CC4)cn3n2)c(F)c1)c1cccn(-c2ccccc2)c1=O", "assayed-system": "PHKG2", "%Inh (%)": 0}
{"compound": "C[C@@H](Oc1cc(-n2cnc3cc(-c4cnn(C)c4)ccc32)sc1C(N)=O)c1ccccc1Cl [GSK580432]", "assayed-system": "PHKG2", "%Inh (%)": 47}
{"compound": "N#Cc1cccc(C(=O)NC2CCN(c3ccnc(Nc4ccc(F)cc4)n3)C2)c1 (stereo not drawn) [GSK1379708]", "assayed-system": "PHKG2", "%Inh (%)": 0}

Prompt: Item NC(=O)c1ccc(-c2cc3ncnc(SCC(=O)O)c3s2)cc1 has what recorded %Inh?
Response: 1

Prompt: Fill in: %Inh of Cn1cc(-c2cccc3c(N)c(C(N)=O)nnc23)cn1 is ___
Response: 0

Prompt: Which value of %Inh has been reported for Cn1ccc2ncnc(Oc3ccc(NC(=O)Nc4cc(C(C)(C)C)on4)c(Cl)c3)c21 in the records?
Response: 9

Prompt: Sample CC(C(=O)NC1CCN(c2ccnc(Nc3ccc(F)cc3)n2)C1)c1ccc(Cl)cc1 (stereo not drawn) [GSK1379713] — what was its %Inh?
Response: 0

Prompt: Entry CN1CCN(CCNc2nc3cc(Oc4ccc(NC(=O)Nc5cc(C(F)(F)F)ccc5F)cc4)ccc3[nH]2)CC1.Cl.Cl [GW768504] has what %Inh?
Response: 0

Prompt: Data request, read-out %Inh, for Cc1ccc2c(-c3ccnc(Nc4ccc(C(F)(F)F)cc4)n3)cnn2n1 [GW819776]
Response: 0

Prompt: Which %Inh value is on record for CCNCC(Cc1ccccc1)NC(=O)c1cc(Br)c(-c2ccnc3[nH]ccc23)s1.Cl.Cl (stereo not drawn) [GSK1383280] ?
Response: 20

====

# Tested on: LATS1
# assay-context: concentration: 1 μM,replicates: in singlicate; n = 1
parameter: %Inh (%)
Give the number; % is assumed, so skip it.

{"compound": "CC(C)c1nc(-c2cccc(NS(=O)(=O)c3ccccc3)c2)c(-c2ccnc(Nc3ccc4c(c3)CN(C)CC4)n2)s1 [GSK1649598]", "readout-units": "%", "%Inh": 6}
{"compound": "O=C(NOCC1CC1)c1cc(Br)c(F)c(F)c1Nc1ccc(I)cc1Cl", "readout-units": "%", "%Inh": 14}
{"compound": "Cc1ccc(CC(=O)N2CCc3cc(-c4cn(C)c5ncnc(N)c45)ccc32)cc1 [GSK2634758]", "readout-units": "%", "%Inh": 0}
{"compound": "C[C@@H]1CNc2c(sc3ccc4nc(-c5ccncc5)ccc4c23)C(=O)N1", "readout-units": "%", "%Inh": 0}
{"compound": "C[C@@H](Oc1cc(-n2cnc3cc(-c4cnn(C)c4)ccc32)sc1C(N)=O)c1ccccc1Cl [GSK580432]", "readout-units": "%", "%Inh": 0}

Prompt: Consider the compound Cc1ccc2c(-c3ccnc(Nc4ccc(C(F)(F)F)cc4)n3)cnn2n1 [GW819776] and give its measured %Inh.
Response: 0

Prompt: Please give the measured %Inh for this compound: COc1ccc(Nc2nccc(N3CCC(NC(=O)c4cccc(C#N)c4)C3)n2)cc1 (stereo not drawn) [GSK1379730]
Response: 0

Prompt: Endpoint output: %Inh of C[C@@H]1CCN(C(=O)N2CCCC2)C[C@@H]1N(C)c1ncnc2[nH]ccc12 . Value?
Response: 0

Prompt: Could you tell me which %Inh is on file for Cn1cc(-c2cccc3c(N)c(C(N)=O)nnc23)cn1 ?
Response: 3

Prompt: Any idea what %Inh was measured for COC(=O)Nc1nc2cc(Oc3ccc(NC(=O)Nc4cc(C(F)(F)F)ccc4Cl)cc3)ccc2[nH]1.Cl [GW697465] ?
Response: 100

Prompt: Could you share which %Inh value was measured for COc1cccc(CNC(=O)NC2CCN(c3ccnc(Nc4cc(OC)c(OC)c(OC)c4)n3)C2)c1 (stereo not drawn) [GSK1379765] ?
Response: 0

Prompt: Request the reported %Inh associated with Cc1cccc(-c2nc(Nc3ccncc3)c3sccc3n2)n1 [GW869641]
Response: 11

Prompt: Sample CCNCC(Cc1ccccc1)NC(=O)c1cc(Br)c(-c2ccnc3[nH]ccc23)s1.Cl.Cl (stereo not drawn) [GSK1383280] — what was its %Inh?
Response: 43

Prompt: Would you mind telling me what %Inh value was observed for O=C(Nc1ccc(Oc2ccc3nc(NC(=O)C4CC4)cn3n2)c(F)c1)c1cccn(-c2ccccc2)c1=O ?
Response: 0

Prompt: For the compound shown here, CCOC(=O)N1CCC(n2cnc(-c3ccc(F)cc3)c2-c2ccnc(N)n2)CC1 [SB-219952] , give the reported %Inh.
Response: 0

Prompt: What value of %Inh has been reported for the following compound? Cl.Cl.NC[C@H](CC1CCCCC1)NC(=O)c1ccc(-c2ccnc3[nH]ccc23)s1 [GSK1581428]
Response: 89

Prompt: I have this compound here, Cn1ccc2ncnc(Oc3ccc(NC(=O)Nc4cnn(C(C)(C)C)c4)c(Cl)c3)c21 , and I need its recorded %Inh.
Response: 100

Prompt: What value of %Inh has been reported for the following compound? Cc1ccn2nc(-c3ccc(F)cc3)c(-c3ccncc3)c2c1.Cl [GW457859]
Response: 2

This collection of values is drawn from paper PMC5540273.
